- Target Of Assay: UniProtKB Q99685
- Experiment Description: 2-AG assay: MAGL inhibitory activity by hydrolysis of 2-arachidonoylglycerol to arachidonic acid, followed by mass spectrometry
- Type: biochemical
- Experimental Context: 15 min preincubation, 30 min reaction at RT, 8 μM 2-arachidonoylglycerol
pIC50: −log10 of the molar value.
Is pIC50 at least 8? Then met. If not, not met.

Cn1ncc(C(F)(F)F)c1CC1CC2(C1)CN(C(=O)N1CC3(CCC(=O)N3)C1)C2	met

## Task Could you tell me if the measured pIC50 of O=C1NC2(CO1)CN(C(=O)N1CC3(CC(Cc4ccc(F)cn4)C3)C1)C2 reaches 8 or more?
## Result met

## Task Could you tell me if the measured pIC50 of O=C1CCC2(CN(C(=O)N3CC4(CCN(Cc5cc(C(F)(F)F)sn5)CC4)C3)C2)N1 reaches 8 or more?
## Result not met

## Task Could you tell me if the measured pIC50 of CS(=O)(=O)c1ccc(CC2CC3(C2)CN(C(=O)N2CC4(CCC(=O)N4)C2)C3)cc1C(F)(F)F reaches 8 or more?
## Result met

###

- Target Of Assay: MAGL (Homo sapiens)
- Sequence (Q99685 1-303): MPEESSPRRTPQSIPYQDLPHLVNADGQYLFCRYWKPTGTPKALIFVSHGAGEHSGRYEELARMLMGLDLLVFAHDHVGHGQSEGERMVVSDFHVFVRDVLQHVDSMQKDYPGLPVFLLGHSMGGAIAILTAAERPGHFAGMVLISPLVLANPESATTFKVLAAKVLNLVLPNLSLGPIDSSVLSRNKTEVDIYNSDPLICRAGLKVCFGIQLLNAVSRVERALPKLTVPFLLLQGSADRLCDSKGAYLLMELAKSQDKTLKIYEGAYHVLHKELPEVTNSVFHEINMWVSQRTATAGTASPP
- Experiment Description: 2-AG assay: MAGL inhibitory activity by hydrolysis of 2-arachidonoylglycerol to arachidonic acid, followed by mass spectrometry
- Type: biochemical
- Experimental Context: 15 min preincubation, 30 min reaction at RT, 8 μM 2-arachidonoylglycerol
- Text: Compounds of formula (I) were profiled for MAGL inhibitory activity by determining the enzymatic activity by following the hydrolysis of the natural substrate 2-arachidonoylglycerol (2-AG) resulting in arachidonic acid, which can be followed by mass spectrometry. This assay is hereinafter abbreviated “2-AG assay”. […]
pIC50 by entry:
Recall that pIC50 is obtained by taking minus log10 of the concentration measured in molar.

O=C1CCC2(CN(C(=O)N3CC4(CC(Cc5ccc(OC(F)(F)F)nc5)C4)C3)C2)N1 [Example 179]	8.78
O=C1COCC2(CN(C(=O)N3CC4(CCN(S(=O)(=O)c5ccc(C(F)(F)F)cc5F)CC4)C3)C2)N1 [Example 141]	6.66
N=[S@@](=O)(c1ccc(CC2CC3(C2)CN(C(=O)N2CC4(CCCC(=O)N4)C2)C3)cc1)C(F)(F)F (single isomer, unassigned) [Example 284]	6.92
O=C1COCC2(CN(C(=O)N3CC4(CC(NS(=O)(=O)c5cccc(C(F)(F)F)c5)C4)C3)C2)N1 [Example 208]	7.17
O=C1CCC2(CN(C(=O)N3CC4(CC(Oc5cncc(C(F)(F)F)c5)C4)C3)C2)N1 [Example 299]	7.20
O=C1NC2(CO1)CN(C(=O)N1CC3(CCN(S(=O)(=O)C45CC(C(F)(F)F)(C4)C5)CC3)C1)C2 [Example 204]	7.93
O=C1COCC2(CN(C(=O)N3CC4(CC(Cc5ccc(OC(F)(F)F)cn5)C4)C3)C2)N1 [Example 177]	8.70
CN(c1cnc(C(F)(F)F)cn1)C1CCC2(CC1)CN(C(=O)N1CC3(COC(=O)N3)C1)C2 [Example 96]	8.73
O=C1CCC2(CN(C(=O)N3CC4(CC(Cc5nsc(C(F)(F)F)n5)C4)C3)C2)N1 [Example 349]	7.64
N=[S@](=O)(c1cccc(CC2CC3(C2)CN(C(=O)N2CC4(COCC(=O)N4)C2)C3)c1)C(F)(F)F [Example 294]	8.67

## Task Given the molecule O=C1CCC2(CN(C(=O)N3CC4(CCN(S(=O)(=O)c5ccc(C(F)(F)F)cc5F)CC4)C3)C2)N1 [Example 194] , what is its reported pIC50?
## Result 7.35

## Task Given the molecule N=S(=O)(c1cc(F)cc(CC2CC3(C2)CN(C(=O)N2CC4(CCC(=O)N4)C2)C3)c1)C(F)(F)F (stereo not drawn) [Example 298] , what is its reported pIC50?
## Result 9.08

## Task Given the molecule N=[S@](=O)(c1cccc(CC2CC3(C2)CN(C(=O)N2CC4(CCC(=O)N4)C2)C3)c1)C(F)(F)F [Example 292] , what is its reported pIC50?
## Result 8.89

## Task Given the molecule O=C1NC2(CO1)CN(C(=O)N1CC3(CC(Oc4cnc(C(F)(F)F)cn4)C3)C1)C2 [Example 70] , what is its reported pIC50?
## Result 8.43

## Task Given the molecule O=C1COCC2(CN(C(=O)N3CC4(CCN(Cc5ccc(S(=O)(=O)C(F)(F)F)cc5)CC4)C3)C2)N1 [Example 83] , what is its reported pIC50?
## Result 7.62
